ASSAY_OVERVIEW: Acute toxicity (LD50) in ICR mice
Format: in vivo
SETTINGS: mouse, in vivo, oral, mortality within 14 days
Provide the recorded LD50 at 14 days for the entries that follow.
Field: numeric (mg/kg). Do not append units.

Query block: Requested read-out: LD50 at 14 days. Entry: OCC(O)CO
Result block: 20600

Query block: Requested read-out: LD50 at 14 days. Entry: OCCOCCOCCO
Result block: 17000
